target desc: JAK 3 (Homo sapiens (Human))
assay explanation: Biochemical potency on JAK3, TR-FRET LANCE Ultra kinase assay (compounds 1-92)
measurement setup: ATP at Km, read-out: JAK3 inhibitory activity (pIC50 class) (converted)
value kind: IC50

>>> recorded_value("CNCC(=O)Nc1nn(-c2ccc(NS(C)(=O)=O)cc2OC)c2cc(-c3cnn4cccnc34)ncc12")
"≤ 5.01 nM"
>>> recorded_value("COc1cc(NS(C)(=O)=O)ccc1-n1nc(NCCN2CCN(C)CC2)c2cnc(-c3cnn4cccnc34)cc21")
"≤ 5.01 nM"
>>> recorded_value("COc1cc(CNS(C)(=O)=O)ccc1-n1nc(C(=O)NCCCN(C)C)c2cnc(-c3cnn4cccnc34)cc21")
"5.01 to 50.1 nM"
>>> recorded_value("COc1cc(NS(C)(=O)=O)ccc1-n1nc(NCCN2CCOCC2)c2cnc(Nc3ncc[nH]c3=O)cc21")
"≤ 5.01 nM"
>>> recorded_value("COc1cc(NS(C)(=O)=O)ccc1-n1nc(C(=O)NCCN2CCOCC2)c2cnc(-c3cnn4cccnc34)cc21")
"≤ 5.01 nM"
>>> recorded_value("CCCS(=O)(=O)Nc1ccc(-n2nc(C(=O)NCCCN3CCOCC3)c3cnc(-c4cnn5cccnc45)cc32)c(OC)c1")
"5.01 to 50.1 nM"
>>> recorded_value("CNc1cc(OC)c(-n2nc(C)c3cnc(-c4cnn5cccnc45)cc32)cn1")
"5.01 to 50.1 nM"
>>> recorded_value("COc1cc(NS(=O)(=O)CC(N)=O)ccc1-n1nc(C)c2cnc(-c3cnn4cccnc34)cc21")
"≤ 5.01 nM"
>>> recorded_value("CNC(=O)Nc1ccc(-n2nc(C)c3cnc(-c4cnn5cccnc45)cc32)c(OC)c1")
"5.01 to 50.1 nM"
>>> recorded_value("COc1cc(C(C)NS(C)(=O)=O)ccc1-n1nc(C)c2cnc(-c3cnn4cccnc34)cc21 (stereo not drawn)")
"≤ 5.01 nM"
>>> recorded_value("COc1cc(NS(C)(=O)=O)ccc1-n1nc(NCCN(C)CCF)c2cnc(-c3cnn4cccnc34)cc21")
"≤ 5.01 nM"
>>> recorded_value("COc1cc(CNC(=O)Nc2ccccc2)ccc1-n1nc(C)c2cnc(-c3cnn4cccnc34)cc21")
"5.01 to 50.1 nM"
>>> recorded_value("COCCN1CCC(CNc2nn(-c3ccc(NS(C)(=O)=O)cc3OC)c3cc(-c4cnn5cccnc45)ncc23)CC1")
"≤ 5.01 nM"
>>> recorded_value("COc1cc(NS(C)(=O)=O)ccc1-n1nc(NCCN2C3CCC2COC3)c2cnc(-c3cnn4cccnc34)cc21")
"≤ 5.01 nM"
>>> recorded_value("COc1cc(NS(C)(=O)=O)ccc1-n1nc(NC(=O)CN2CCN(C)CC2)c2cnc(-c3cnn4cccnc34)cc21")
"≤ 5.01 nM"

###

target desc: JAK 3 (Homo sapiens (Human), UniProt P52333)
Sequence (P52333 whole entry): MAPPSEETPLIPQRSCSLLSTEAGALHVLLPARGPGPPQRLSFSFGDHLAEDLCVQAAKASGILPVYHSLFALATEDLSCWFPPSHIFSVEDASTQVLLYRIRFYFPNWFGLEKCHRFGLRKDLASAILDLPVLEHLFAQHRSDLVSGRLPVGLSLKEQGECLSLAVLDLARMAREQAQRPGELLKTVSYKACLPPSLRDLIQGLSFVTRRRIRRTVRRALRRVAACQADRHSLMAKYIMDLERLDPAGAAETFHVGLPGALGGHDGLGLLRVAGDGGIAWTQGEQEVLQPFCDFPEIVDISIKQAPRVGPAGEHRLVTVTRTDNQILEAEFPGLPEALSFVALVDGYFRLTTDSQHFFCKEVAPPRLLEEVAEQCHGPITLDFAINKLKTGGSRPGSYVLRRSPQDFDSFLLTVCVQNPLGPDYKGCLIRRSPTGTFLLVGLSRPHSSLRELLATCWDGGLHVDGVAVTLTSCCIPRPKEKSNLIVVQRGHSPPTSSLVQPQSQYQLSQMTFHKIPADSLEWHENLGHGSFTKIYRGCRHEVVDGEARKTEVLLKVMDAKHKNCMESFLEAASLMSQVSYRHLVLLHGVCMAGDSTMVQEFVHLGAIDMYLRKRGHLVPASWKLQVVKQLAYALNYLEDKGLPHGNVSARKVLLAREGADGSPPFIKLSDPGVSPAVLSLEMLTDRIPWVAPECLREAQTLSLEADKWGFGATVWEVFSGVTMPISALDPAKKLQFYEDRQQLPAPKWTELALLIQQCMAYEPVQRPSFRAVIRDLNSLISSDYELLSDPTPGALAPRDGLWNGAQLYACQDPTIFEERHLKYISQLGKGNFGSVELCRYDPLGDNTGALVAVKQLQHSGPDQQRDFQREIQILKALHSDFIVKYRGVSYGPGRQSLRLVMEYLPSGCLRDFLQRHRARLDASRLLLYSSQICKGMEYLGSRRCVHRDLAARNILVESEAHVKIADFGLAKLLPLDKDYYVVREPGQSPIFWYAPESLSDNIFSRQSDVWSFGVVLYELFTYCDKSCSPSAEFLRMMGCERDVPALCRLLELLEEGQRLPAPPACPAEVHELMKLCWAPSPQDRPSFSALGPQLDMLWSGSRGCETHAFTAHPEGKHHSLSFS
assay explanation: Biochemical potency on JAK3, TR-FRET LANCE Ultra kinase assay (compounds 1-92)
measurement setup: ATP at Km, read-out: JAK3 inhibitory activity (pIC50 class) (converted)
The reader will find reported IC50 values listed item by item below.
value kind: IC50

>>> recorded_value("CCCS(=O)(=O)Nc1ccc(-n2nc(NC(=O)CCN3CCN(C)CC3)c3cnc(-c4cnn5cccnc45)cc32)c(OC)c1")
"5.01 to 50.1 nM"
>>> recorded_value("CCCS(=O)(=O)Nc1ccc(-n2nc(C(=O)NCCCN(C)C)c3cnc(-c4cnn5cccnc45)cc32)c(OC)c1")
"5.01 to 50.1 nM"
>>> recorded_value("CNc1nn(-c2ccc(NS(C)(=O)=O)cc2OC)c2cc(-c3cnn4cccnc34)ncc12")
"≤ 5.01 nM"
>>> recorded_value("COc1cc(CNS(=O)(=O)C2CC2)ccc1-n1nc(C)c2cnc(-c3cnn4cccnc34)cc21")
"≤ 5.01 nM"
>>> recorded_value("COc1cc(CNS(C)(=O)=O)ccc1-n1nc(C)c2cnc(-c3cnn4cccnc34)cc21")
"≤ 5.01 nM"
>>> recorded_value("CNC(=O)c1ccc(-n2nc(C)c3cnc(-c4cnn5cccnc45)cc32)c(OC)c1")
"> 50.1 nM"
>>> recorded_value("COc1cc(NS(C)(=O)=O)c(F)cc1-n1nc(C)c2cnc(-c3cnn4cccnc34)cc21")
"5.01 to 50.1 nM"
>>> recorded_value("COc1cc(CNS(C)(=O)=O)ccc1-n1nc(NCCN2CCOCC2)c2cnc(Nc3ncc[nH]c3=O)cc21")
"≤ 5.01 nM"

###

target desc: JAK 2 (Homo sapiens (Human))
Sequence (O60674 whole entry): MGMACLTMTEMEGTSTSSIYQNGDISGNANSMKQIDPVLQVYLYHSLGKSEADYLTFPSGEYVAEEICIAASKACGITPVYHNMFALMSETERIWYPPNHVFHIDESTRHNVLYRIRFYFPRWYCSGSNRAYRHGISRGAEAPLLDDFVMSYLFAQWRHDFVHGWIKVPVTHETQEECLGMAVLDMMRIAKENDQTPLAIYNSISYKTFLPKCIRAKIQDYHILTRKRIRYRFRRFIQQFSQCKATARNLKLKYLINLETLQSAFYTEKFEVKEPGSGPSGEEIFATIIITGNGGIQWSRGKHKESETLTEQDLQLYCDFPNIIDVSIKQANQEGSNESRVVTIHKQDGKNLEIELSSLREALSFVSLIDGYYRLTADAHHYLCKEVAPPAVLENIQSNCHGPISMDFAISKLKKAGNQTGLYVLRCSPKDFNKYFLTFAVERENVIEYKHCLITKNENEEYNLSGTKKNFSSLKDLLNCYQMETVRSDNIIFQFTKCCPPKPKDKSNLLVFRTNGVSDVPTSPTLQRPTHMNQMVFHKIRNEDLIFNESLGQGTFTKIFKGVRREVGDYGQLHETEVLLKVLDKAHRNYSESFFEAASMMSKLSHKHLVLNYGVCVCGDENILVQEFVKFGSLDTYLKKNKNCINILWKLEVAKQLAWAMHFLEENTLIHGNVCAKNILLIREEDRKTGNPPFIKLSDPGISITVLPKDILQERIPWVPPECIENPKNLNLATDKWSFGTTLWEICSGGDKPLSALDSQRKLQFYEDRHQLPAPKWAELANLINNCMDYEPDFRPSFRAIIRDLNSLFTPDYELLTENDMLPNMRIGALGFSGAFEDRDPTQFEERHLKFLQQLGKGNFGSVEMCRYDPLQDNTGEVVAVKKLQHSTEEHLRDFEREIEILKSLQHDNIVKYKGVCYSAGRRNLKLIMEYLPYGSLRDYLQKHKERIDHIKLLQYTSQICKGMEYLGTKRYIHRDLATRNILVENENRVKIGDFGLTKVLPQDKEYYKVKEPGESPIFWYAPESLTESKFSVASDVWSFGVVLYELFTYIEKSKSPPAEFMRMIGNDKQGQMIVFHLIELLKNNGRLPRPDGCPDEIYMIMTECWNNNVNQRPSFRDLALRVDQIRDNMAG
assay explanation: Biochemical potency on JAK2, TR-FRET LANCE Ultra kinase assay (compounds 1-92)
measurement setup: ATP at Km, read-out: JAK2 inhibitory activity (pIC50 class) (converted)
value kind: IC50

>>> recorded_value("COc1cc(C(=O)Nc2ccccc2)ccc1-n1nc(C)c2cnc(-c3cnn4cccnc34)cc21 [Example 20]")
"5.01 to 50.1 nM"
>>> recorded_value("Cc1nn(-c2ccc(NS(C)(=O)=O)cc2OC(F)F)c2cc(-c3cnn4cccnc34)ncc12 [Example 7]")
"≤ 5.01 nM"
>>> recorded_value("COc1cc(CNS(C)(=O)=O)ccc1-n1nc(C)c2cnc(-c3cnn4cccnc34)cc21 [Example 63]")
"≤ 5.01 nM"
>>> recorded_value("COc1cc(NS(C)(=O)=O)ccc1-n1nc(NCCN2C3CCC2COC3)c2cnc(-c3cnn4cccnc34)cc21 [Example 30]")
"≤ 5.01 nM"
>>> recorded_value("CNc1nn(-c2ccc(S(=O)(=O)NC)cc2OC)c2cc(-c3cnn4cccnc34)ncc12 [Example 51]")
"≤ 5.01 nM"
>>> recorded_value("COc1cc(NS(C)(=O)=O)ccc1-n1nc(NCCO)c2cnc(-c3cnn4cccnc34)cc21 [Example 26]")
"≤ 5.01 nM"
>>> recorded_value("COc1cc(NS(C)(=O)=O)ccc1-n1nc(NCCN2CCOCC2)c2cnc(-c3cnn4cccnc34)cc21 [Example 24]")
"≤ 5.01 nM"
>>> recorded_value("COc1cc(NS(C)(=O)=O)ccc1-n1nc(NCCN2CCN(C)CC2)c2cnc(-c3cnn4cccnc34)cc21 [Example 38]")
"≤ 5.01 nM"
>>> recorded_value("COc1cc(CNC(C)=O)ccc1-n1nc(C)c2cnc(-c3cnn4cccnc34)cc21 [Example 70]")
"> 50.1 nM"
>>> recorded_value("COc1cc(NC(=O)c2ccccc2)cnc1-n1nc(C)c2cnc(-c3cnn4cccnc34)cc21 [Example 48]")
"≤ 5.01 nM"
>>> recorded_value("COc1cc(NC(=O)c2ccccc2)ccc1-n1nc(C)c2cnc(-c3cnn4cccnc34)cc21 [Example 74]")
"5.01 to 50.1 nM"
>>> recorded_value("COc1cc(NS(=O)(=O)CC2CC2)ccc1-n1nc(C)c2cnc(-c3cnn4cccnc34)cc21 [Example 5]")
"≤ 5.01 nM"
>>> recorded_value("CCCS(=O)(=O)Nc1ccc(-n2nc(NCCN3CCOCC3)c3cnc(Nc4ncc[nH]c4=O)cc32)c(OC(F)F)c1 [Example 89]")
"≤ 5.01 nM"
>>> recorded_value("CCCS(=O)(=O)Nc1ccc(-n2nc(NCCN3CCCCC3)c3cnc(Nc4ncc[nH]c4=O)cc32)c(OC)c1 [Example 88]")
"≤ 5.01 nM"
>>> recorded_value("CNc1nn(-c2cc(Cl)c(CNS(C)(=O)=O)cc2OC)c2cc(-c3cnn4cccnc34)ncc12 [Example 57]")
"≤ 5.01 nM"
>>> recorded_value("CCCS(=O)(=O)Nc1ccc(-n2nc(CNC)c3cnc(-c4cnn5cccnc45)cc32)c(OC)c1 [Example 83]")
"≤ 5.01 nM"

###

target desc: TYK2 (Homo sapiens (Human))
Sequence (P29597 whole entry): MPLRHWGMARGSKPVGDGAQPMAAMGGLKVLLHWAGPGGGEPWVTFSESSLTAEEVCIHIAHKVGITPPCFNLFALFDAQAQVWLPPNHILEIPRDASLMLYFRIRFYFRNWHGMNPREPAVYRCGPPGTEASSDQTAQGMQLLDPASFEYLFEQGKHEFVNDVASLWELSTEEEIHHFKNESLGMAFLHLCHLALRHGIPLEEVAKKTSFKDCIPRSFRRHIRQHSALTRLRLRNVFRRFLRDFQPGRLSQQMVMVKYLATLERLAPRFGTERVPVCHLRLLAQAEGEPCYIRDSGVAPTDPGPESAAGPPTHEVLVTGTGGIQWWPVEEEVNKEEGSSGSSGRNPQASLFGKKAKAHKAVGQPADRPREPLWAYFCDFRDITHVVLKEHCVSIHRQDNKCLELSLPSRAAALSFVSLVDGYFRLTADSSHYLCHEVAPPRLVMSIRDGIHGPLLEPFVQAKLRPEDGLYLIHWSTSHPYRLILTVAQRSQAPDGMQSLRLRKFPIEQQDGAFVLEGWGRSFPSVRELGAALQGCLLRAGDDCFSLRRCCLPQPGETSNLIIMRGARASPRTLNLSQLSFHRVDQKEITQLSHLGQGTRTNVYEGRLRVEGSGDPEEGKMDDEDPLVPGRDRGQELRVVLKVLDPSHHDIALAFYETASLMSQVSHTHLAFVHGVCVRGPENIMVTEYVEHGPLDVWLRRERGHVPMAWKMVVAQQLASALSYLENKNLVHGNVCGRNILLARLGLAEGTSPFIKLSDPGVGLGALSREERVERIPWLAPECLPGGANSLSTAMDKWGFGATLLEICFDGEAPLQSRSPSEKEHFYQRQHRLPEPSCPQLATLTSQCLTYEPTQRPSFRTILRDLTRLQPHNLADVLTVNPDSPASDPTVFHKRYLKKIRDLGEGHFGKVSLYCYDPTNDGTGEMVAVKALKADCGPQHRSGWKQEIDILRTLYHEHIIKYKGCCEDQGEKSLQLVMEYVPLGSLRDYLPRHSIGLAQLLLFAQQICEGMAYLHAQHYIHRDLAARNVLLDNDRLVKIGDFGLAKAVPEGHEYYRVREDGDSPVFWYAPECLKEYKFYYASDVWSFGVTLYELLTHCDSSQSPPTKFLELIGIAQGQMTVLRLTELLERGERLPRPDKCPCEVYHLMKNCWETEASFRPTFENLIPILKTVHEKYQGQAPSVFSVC
assay explanation: Biochemical potency on Tyk2, TR-FRET LANCE Ultra kinase assay (compounds 1-92)
measurement setup: ATP at Km, read-out: Tyk2 inhibitory activity (pIC50 class) (converted)
value kind: IC50

>>> recorded_value("COc1cc(NS(C)(=O)=O)ccc1-n1nc(NCCN(C)CCF)c2cnc(-c3cnn4cccnc34)cc21")
"5.01 to 50.1 nM"
>>> recorded_value("COc1cc(NS(=O)(=O)C2CC2)ccc1-n1nc(NCCN2CCOCC2)c2cnc(-c3cnn4cccnc34)cc21")
"5.01 to 50.1 nM"
>>> recorded_value("COc1cc(NS(C)(=O)=O)ccc1-n1nc(C(=O)NCCCN(C)C)c2cnc(-c3cnn4cccnc34)cc21")
"5.01 to 50.1 nM"
>>> recorded_value("COc1cc(CNS(C)(=O)=O)ccc1-n1nc(C(=O)NCCCN(C)C)c2cnc(-c3cnn4cccnc34)cc21")
"5.01 to 50.1 nM"
>>> recorded_value("COc1cc(NS(C)(=O)=O)ccc1-n1nc(C(=O)NCCN(C)C)c2cnc(-c3cnn4cccnc34)cc21")
"5.01 to 50.1 nM"
>>> recorded_value("COc1cc(NS(=O)(=O)C2CC2)cnc1-n1nc(NCCN(C)C)c2cnc(-c3cnn4cccnc34)cc21")
"> 50.1 nM"
>>> recorded_value("COc1cc(NS(=O)(=O)C2CCOCC2)ccc1-n1nc(C)c2cnc(-c3cnn4cccnc34)cc21")
"> 50.1 nM"
